Test: phase I two-part drug-drug interaction study, plasma pharmacokinetics (Example 1)
Format: in vivo, human
Details: male, human, plasma, oral, 200 mg belumosudil single dose + itraconazole; read-out: AUC0-24, geometric mean (geometric CV %)
metric: AUC from 0 to 24 h (ng·h/mL)
Expressed in ng·h/mL, but write only the number.

What value of AUC from 0 to 24 h has been recorded for this entry: CC(C)NC(=O)COc1cccc(-c2nc(Nc3ccc4[nH]ncc4c3)c3ccccc3n2)c1 [Belumosudil] 10400

###

Assay: previously conducted solubility studies
Format: physicochemical
Conditions: pH 7.4, aqueous buffer
metric: solubility

Quick one: solubility of CC(C)NC(=O)COc1cccc(-c2nc(Nc3ccc4[nH]ncc4c3)c3ccccc3n2)c1 ? ~3 µg/mL

###

Test: phase I two-part drug-drug interaction study, plasma pharmacokinetics (Example 1)
Type: in vivo, human
Details: male, human, plasma, oral, 200 mg, 200 mg belumosudil single dose alone; read-out: AUCinf, geometric mean (geometric CV %)
metric: AUC(0-inf) (ng·h/mL)
Report the figure in ng·h/mL without appending any unit label.

# input compound: CC(C)NC(=O)COc1cccc(-c2nc(Nc3ccc4[nH]ncc4c3)c3ccccc3n2)c1 ; wanted: its AUC(0-inf) 9080

###

Experiment: relative bioavailability/food effect study, tablet and capsule (KD025-106)
Format: in vivo, human
Conditions: male, human, plasma, oral, 200 mg, 200 mg tablet, fed; read-out: AUC0-24, arithmetic mean (SD)
metric: AUC(0-t)

What value of measured AUC(0-t) is listed for CC(C)NC(=O)COc1cccc(-c2nc(Nc3ccc4[nH]ncc4c3)c3ccccc3n2)c1 ? 10600 ng·h/mL

###

Test: phase I two-part drug-drug interaction study, plasma pharmacokinetics (Example 1)
Type: in vivo, human
Settings: male, human, plasma, oral, 200 mg, 200 mg belumosudil BID alone; read-out: t1/2, geometric mean (geometric CV %) (converted)
metric: half-life
Write the numeric value and follow it with the unit.

Endpoint output: half-life of CC(C)NC(=O)COc1cccc(-c2nc(Nc3ccc4[nH]ncc4c3)c3ccccc3n2)c1 . Value? 6.86 h

###

Assay: phase I two-part drug-drug interaction study, plasma pharmacokinetics (Example 1)
Format: in vivo, human
Settings: male, human, plasma, oral, 200 mg, 200 mg belumosudil single dose alone; read-out: t1/2, arithmetic mean (SD) (converted)
Procedure: The secondary objective was to provide additional information on the safety and tolerability of this dose regimen in healthy males. This was a single center, non-randomized, DDI study in 35 (Part 1) and 38 (Part 2) healthy males. […] For each comparison, PK parameters were natural log transformed and analyzed using mixed effect modeling with treatment included as a fixed effect and subject as a random effect. Adjusted geometric mean ratios (GMRs) and corresponding 90% CIs were calculated.
metric: half-life

Report half-life for CC(C)NC(=O)COc1cccc(-c2nc(Nc3ccc4[nH]ncc4c3)c3ccccc3n2)c1 please. 9.28 h

###

Assay: phase I two-part drug-drug interaction study, plasma pharmacokinetics (Example 1)
Assay type: in vivo, human
Settings: male, human, plasma, oral, 200 mg belumosudil single dose + rifampicin; read-out: t1/2, arithmetic mean (SD) (converted)
metric: half-life
Note: state the figure and append the unit.

Which half-life is listed for CC(C)NC(=O)COc1cccc(-c2nc(Nc3ccc4[nH]ncc4c3)c3ccccc3n2)c1 [Belumosudil] ? 2.36 h

###

Experiment: phase I two-part drug-drug interaction study, plasma pharmacokinetics (Example 1)
Type: in vivo, human
Conditions: male, human, plasma, oral, 200 mg, 200 mg belumosudil BID alone; read-out: AUClast, arithmetic mean (SD)
metric: AUC(0-t) (ng·h/mL)
Give the value in ng·h/mL but do not write ng·h/mL after it.

For the compound CC(C)NC(=O)COc1cccc(-c2nc(Nc3ccc4[nH]ncc4c3)c3ccccc3n2)c1 [Belumosudil] , what AUC(0-t) is on record? 20300

###

Assay: phase I two-part drug-drug interaction study, plasma pharmacokinetics (Example 1)
Type: in vivo, human
Details: male, human, plasma, oral, 200 mg, 200 mg belumosudil BID alone; read-out: AUC0-24, arithmetic mean (SD)
Description: The secondary objective was to provide additional information on the safety and tolerability of this dose regimen in healthy males. This was a single center, non-randomized, DDI study in 35 (Part 1) and 38 (Part 2) healthy males. […] For each comparison, PK parameters were natural log transformed and analyzed using mixed effect modeling with treatment included as a fixed effect and subject as a random effect. Adjusted geometric mean ratios (GMRs) and corresponding 90% CIs were calculated.
metric: AUC from 0 to 24 h (ng·h/mL)
Express it in ng·h/mL; write the number only.

Give the measured AUC from 0 to 24 h of CC(C)NC(=O)COc1cccc(-c2nc(Nc3ccc4[nH]ncc4c3)c3ccccc3n2)c1 . 17900

###

Assay: food effect study, 5 × 100 mg capsules (KD025-105)
Type: in vivo, human
Details: male, human, plasma, oral, 500 mg, 5 × 100 mg capsules, fed; read-out: t1/2, geometric mean (geometric CV %) (converted)
metric: half-life (h)
Numbers only; they are read as h.

Can you look up the measured half-life of CC(C)NC(=O)COc1cccc(-c2nc(Nc3ccc4[nH]ncc4c3)c3ccccc3n2)c1 for me? 7.9
